Numbers sourced from patent US9796680B2.

// each record: one item and its Ki for GCase enzyme (Cerezyme, recombinant human GCase) (Homo sapiens, UniProt P04062, R534H)
assay endpoint: Ki (nM)

- C#C[C@@H]1[C@@H](O)[C@H](O)CNC12CC2 [Example 20]: 7.9
- O[C@H]1[C@H](O)CNC2(CC2)[C@@H]1C(F)F [Example 4]: 8
- CC#C[C@@H]1[C@@H](O)[C@H](O)CNC12CC2 [Example 21]: 6.7
- O[C@H]1[C@H](O)CNC2(CC2)[C@@H]1CF [Example 3]: 2.1
- OC[C@@H]1[C@@H](O)[C@H](O)CNC12CC2 [Example 2]: 7

====

target entity: GCase enzyme (Cerezyme, recombinant human GCase) (Homo sapiens, UniProt P04062, R534H)
Sequence (P04062 40-536 R534H limits assumed): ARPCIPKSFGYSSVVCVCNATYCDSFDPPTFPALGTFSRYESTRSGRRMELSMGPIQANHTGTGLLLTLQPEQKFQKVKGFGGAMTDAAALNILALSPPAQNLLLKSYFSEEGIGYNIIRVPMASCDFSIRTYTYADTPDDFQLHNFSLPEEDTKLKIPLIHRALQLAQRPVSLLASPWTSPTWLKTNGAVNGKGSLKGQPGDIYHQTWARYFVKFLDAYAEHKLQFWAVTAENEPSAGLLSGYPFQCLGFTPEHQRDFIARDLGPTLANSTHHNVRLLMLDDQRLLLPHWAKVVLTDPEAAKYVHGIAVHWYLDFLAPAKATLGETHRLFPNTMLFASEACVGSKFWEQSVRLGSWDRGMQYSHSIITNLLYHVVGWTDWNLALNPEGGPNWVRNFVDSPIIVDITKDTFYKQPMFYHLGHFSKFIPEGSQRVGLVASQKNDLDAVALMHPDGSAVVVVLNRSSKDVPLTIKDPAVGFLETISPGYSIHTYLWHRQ
pKi: −log10 of the molar value.
assay endpoint: pKi

Sample records with pKi:
• O[C@H]1[C@H](O)CNC2(CC2)[C@@H]1C#CC(F)F = 7.77
• O[C@H]1[C@H](O)CNC2(CC2)[C@@H]1C#CCF = 7.82

a. C=C[C@@H]1[C@@H](O)[C@H](O)CNC12CC2
b. C[C@@H]1[C@@H](O)[C@H](O)CNC12CC2
Quick check, higher pKi between a and b ? API: response body contains the label of the selected item.
b

====

For GCase enzyme (Cerezyme, recombinant human GCase) (Homo sapiens, UniProt P04062, R534H), measured IC50 is reported for the entries below.
assay endpoint: IC50 (nM)

Known results for compounds:
* O[C@H]1[C@H](O)CNC2(CC2)[C@@H]1C#CC(F)F | 22
* CO[C@@H]1[C@@H](O)[C@H](O)CNC12CC2 | 32
* OCC#C[C@@H]1[C@@H](O)[C@H](O)CNC12CC2 | 17
* CCC[C@@H]1[C@@H](O)[C@H](O)CNC12CC2 | 15
* O[C@H]1[C@H](O)CNC2(CC2)[C@@H]1/C=C\F | 36

P. CC#C[C@@H]1[C@@H](O)[C@H](O)CNC12CC2
Q. C[C@@H]1[C@@H](O)[C@H](O)CNC12CC2
R. O=C(NC1CC1)[C@@H]1[C@@H](O)[C@H](O)CNC12CC2
S. CCC#C[C@@H]1[C@@H](O)[C@H](O)CNC12CC2
Hey, can you sort those compounds up there by IC50, smallest first? Dear reader, please state the labels in the requested order.
S, Q, P, R

a. O[C@H]1[C@H](O)CNC2(CC2)[C@@H]1C#CCC(F)F
b. O=C(O)[C@@H]1[C@@H](O)[C@H](O)CNC12CC2
Lower value of IC50 belongs to which: a or b ? Your choice should be expressed through its label.
a

a. C#C[C@@H]1[C@@H](O)[C@H](O)CNC12CC2
b. O[C@H]1[C@H](O)CNC2(CC2)[C@@H]1/C=C/F
c. CNC(=O)[C@@H]1[C@@H](O)[C@H](O)CNC12CC2
d. O[C@H]1[C@H](O)CNC2(CC2)[C@@H]1C(F)F
Order the records by IC50, with each subsequent value no larger than the one before. Would you mind listing the labels in the order requested?
c, b, a, d
(c: 264 nM, b: 20 nM, a: 13 nM, d: 6.5 nM)

1. CCCC#C[C@@H]1[C@@H](O)[C@H](O)CNC12CC2
2. OC[C@@H]1[C@@H](O)[C@H](O)CNC12CC2
3. O[C@H]1[C@H](O)CNC2(CC2)[C@@H]1C#CCCF
Sort low-to-high on IC50, please. To answer, arrange all of the labels according to the requested order.
3, 1, 2
(3: 2.5 nM, 1: 6.7 nM, 2: 13 nM)

a. C=C[C@@H]1[C@@H](O)[C@H](O)CNC12CC2
b. CC1(C)NC[C@@H](O)[C@H](O)[C@H]1CO [reference compound]
c. N#C[C@@H]1[C@@H](O)[C@H](O)CNC12CC2
Place the items in sequence of falling IC50. # output: labels, in the requested order
b, c, a

====

# IC50 per entry for GCase enzyme (Cerezyme, recombinant human GCase) (Homo sapiens, UniProt P04062, R534H)
assay endpoint: IC50 (nM)

* COC[C@@H]1[C@@H](O)[C@H](O)CNC12CC2 | 7.5
* CC[C@@H]1[C@@H](O)[C@H](O)CNC12CC2 | 6.3
* O[C@H]1[C@H](O)CNC2(CC2)[C@@H]1CCl | 7.4
* O[C@H]1[C@H](O)CNC2(CC2)[C@@H]1CF | 6.2
* O[C@H]1[C@H](O)CNC2(CC2)[C@@H]1CCF | 27
* O[C@H]1[C@H](O)CNC2(CC2)[C@@H]1C=C(F)F | 75
* O[C@H]1[C@H](O)CNC2(CC2)[C@@H]1C#CCF | 16
